- Assay remarks: Cytotoxicity against human LX2 cells assessed as cell death incubated for 24 hrs by MTT assay
- Assay type: cell-based, LX-2
Kindly state CC50 at 24 h for each of the entries shown.

Endpoint output: CC50 at 24 h of `CN(C)c1ccc2c(=O)c(C(=O)Nc3cc(F)cc(F)c3)cn(-c3ccc(OCCCCCCC[N+](C)(C)C4CCCCC4)c(Cl)c3)c2n1` . Value?
> 100 µM

Endpoint output: CC50 at 24 h of `CN(C)c1ccc2c(=O)c(C(=O)Nc3cc(F)cc(F)c3)cn(-c3ccc(OCCCCCCC[N+]4(C)CCCC4)cc3F)c2n1` . Value?
< 20 µM

Endpoint output: CC50 at 24 h of `CC[N+]1(CCCCCCCOc2ccc(-n3cc(C(=O)Nc4cc(F)cc(F)c4)c(=O)c4ccc(N(C)C)nc43)c(F)c2)CCCCC1` . Value?
< 20 µM

Endpoint output: CC50 at 24 h of `CC[N+]1(CCCCCCCOc2ccc(-n3cc(C(=O)Nc4cc(F)cc(F)c4)c(=O)c4ccc(N(C)C)nc43)c(F)c2)CCCC1` . Value?
< 20 µM

Endpoint output: CC50 at 24 h of `CC[N+]1(CCCCCCCOc2ccc(-n3cc(C(=O)Nc4cc(F)cc(F)c4)c(=O)c4ccc(N(C)C)nc43)cc2C)CCCC1` . Value?
> 100 µM

Endpoint output: CC50 at 24 h of `CN(C)c1ccc2c(=O)c(C(=O)Nc3cc(F)cc(F)c3)cn(-c3ccc(OCCCCCCC[N+]4(C)CCCCC4)cc3Cl)c2n1` . Value?
< 20 µM

Endpoint output: CC50 at 24 h of `CN(C)c1ccc2c(=O)c(C(=O)Nc3cc(F)cc(F)c3)cn(-c3ccc(Cl)c(OCCCCCCC[N+](C)(C)C4CCCCC4)c3)c2n1` . Value?
> 100 µM

====

Kindly state CC50 at 24 h for each of the entries shown.
- Assay remarks: Cytotoxicity against human LX2 cells assessed as cell death incubated for 24 hrs by MTT assay
- Assay type: cell-based, LX-2

Endpoint output: CC50 at 24 h of `CC[N+]1(CCCCCCCOc2cc(-n3cc(C(=O)Nc4cc(F)cc(F)c4)c(=O)c4ccc(N(C)C)nc43)ccc2Cl)CCCC1` . Value?
61.3 µM

Endpoint output: CC50 at 24 h of `CN(C)c1ccc2c(=O)c(C(=O)Nc3cc(F)cc(F)c3)cn(-c3ccc(OCCCCCCC[N+]4(C)CCCC4)cc3Cl)c2n1` . Value?
< 20 µM

Endpoint output: CC50 at 24 h of `Cc1cc(OCCCCCCC[N+]2(C)CCCC2)ccc1-n1cc(C(=O)Nc2cc(F)cc(F)c2)c(=O)c2ccc(N(C)C)nc21` . Value?
< 20 µM

Endpoint output: CC50 at 24 h of `CN1CC[N+](C)(CCCCCCCOc2ccc(-n3cc(C(=O)Nc4cc(F)cc(F)c4)c(=O)c4ccc(N(C)C)nc43)c(Cl)c2)CC1` . Value?
< 20 µM

Endpoint output: CC50 at 24 h of `CC[N+]1(CCCCCCCOc2ccc(-n3cc(C(=O)Nc4cc(F)cc(F)c4)c(=O)c4ccc(N(C)C)nc43)c(C)c2)CCCCC1` . Value?
< 20 µM

Endpoint output: CC50 at 24 h of O=C(O[C@@H]1Cc2c(O)cc(O)cc2O[C@@H]1c1cc(O)c(O)c(O)c1)c1cc(O)c(O)c(O)c1 [EPIGALOCATECHIN GALLATE] . Value?
> 100 µM

Endpoint output: CC50 at 24 h of `CN(C)c1ccc2c(=O)c(C(=O)Nc3cc(F)cc(F)c3)cn(-c3ccc(OCCCCCCC[N+]45CCN(CC4)CC5)cc3Cl)c2n1` . Value?
76.9 µM

Endpoint output: CC50 at 24 h of `Cc1cc(OCCCCCCC[N+]2(C)CCCCC2)cc(-n2cc(C(=O)Nc3cc(F)cc(F)c3)c(=O)c3ccc(N(C)C)nc32)c1` . Value?
99.4 µM

Endpoint output: CC50 at 24 h of `CN(C)c1ccc2c(=O)c(C(=O)Nc3cc(F)cc(F)c3)cn(-c3ccc(OCCCCCCC[N+]4(C)CCCCC4)cc3F)c2n1` . Value?
< 20 µM

Endpoint output: CC50 at 24 h of `CC[N+]1(CCCCCCCOc2cc(C)cc(-n3cc(C(=O)Nc4cc(F)cc(F)c4)c(=O)c4ccc(N(C)C)nc43)c2)CCCCC1` . Value?
97.6 µM

Endpoint output: CC50 at 24 h of `Cc1cc(OCCCCCCC[N+]23CCN(CC2)CC3)ccc1-n1cc(C(=O)Nc2cc(F)cc(F)c2)c(=O)c2ccc(N(C)C)nc21` . Value?
< 20 µM

Endpoint output: CC50 at 24 h of `CC[N+]1(CCCCCCCOc2ccc(-n3cc(C(=O)Nc4cc(F)cc(F)c4)c(=O)c4ccc(N(C)C)nc43)c(Cl)c2)CCCC1` . Value?
< 20 µM

Endpoint output: CC50 at 24 h of `Cc1cc(OCCCCCCC[N+]2(C)CCCCC2)ccc1-n1cc(C(=O)Nc2cc(F)cc(F)c2)c(=O)c2ccc(N(C)C)nc21` . Value?
< 20 µM

Endpoint output: CC50 at 24 h of `CN(C)c1ccc2c(=O)c(C(=O)Nc3cc(F)cc(F)c3)cn(-c3ccc(Cl)c(OCCCCCCC[N+]4(C)CCCCC4)c3)c2n1` . Value?
72.6 µM

====

Kindly state CC50 at 24 h for each of the entries shown.
- Assay remarks: Cytotoxicity against human LX2 cells assessed as cell death incubated for 24 hrs by MTT assay
- Type: cell-based, LX-2
Give the number; µM is assumed, so skip it.

Endpoint output: CC50 at 24 h of `CN(C)c1ccc2c(=O)c(C(=O)Nc3cc(F)cc(F)c3)cn(-c3ccc(Cl)c(OCCCCCCC[N+]4(C)CCCC4)c3)c2n1` . Value?
54.5

Endpoint output: CC50 at 24 h of `Cc1cc(OCCCCCCC[N+](C)(C)C2CCCCC2)cc(-n2cc(C(=O)Nc3cc(F)cc(F)c3)c(=O)c3ccc(N(C)C)nc32)c1` . Value?
61.8

Endpoint output: CC50 at 24 h of `CN(C)c1ccc2c(=O)c(C(=O)Nc3cc(F)cc(F)c3)cn(-c3ccc(Cl)c(OCCCCCCC[n+]4ccccc4)c3)c2n1` . Value?
105

Endpoint output: CC50 at 24 h of `CC[N+]1(CCCCCCCOc2cc(-n3cc(C(=O)Nc4cc(F)cc(F)c4)c(=O)c4ccc(N(C)C)nc43)ccc2C)CCCC1` . Value?
95

====

- Assay remarks: Cytotoxicity against human LX2 cells assessed as cell death incubated for 24 hrs by MTT assay
- Type: cell-based, LX-2
Kindly state CC50 at 24 h for each of the entries shown.

Endpoint output: CC50 at 24 h of `CN(C)c1ccc2c(=O)c(C(=O)Nc3cc(F)cc(F)c3)cn(-c3ccc(OCCCCCCC[n+]4ccccc4)cc3F)c2n1` . Value?
< 20 µM

Endpoint output: CC50 at 24 h of `Cc1cc(OCCCCCCC[N+]2(C)CCN(C)CC2)ccc1-n1cc(C(=O)Nc2cc(F)cc(F)c2)c(=O)c2ccc(N(C)C)nc21` . Value?
< 20 µM

Endpoint output: CC50 at 24 h of `CC[N+]1(CCCCCCCOc2ccc(-n3cc(C(=O)Nc4cc(F)cc(F)c4)c(=O)c4ccc(N(C)C)nc43)c(Cl)c2)CCCCC1` . Value?
< 20 µM
